- experimentalDetails: Tmax in NMRI mouse at 1 mg/kg, sc
- testContext: in vivo
readoutLabel: Tmax (min)
Give your result in min as a bare value.

N=C(N)c1ccc(Oc2cc(Oc3ccc(C(=N)N)cc3)cc(C(=O)N[C@H]3CC[C@H](N)CC3)c2)cc1 ... 16.2

With those in mind, consider the next compound.
Record N=C(N)c1ccc(Oc2cc(NC(=O)[C@H]3CC[C@H](N)CC3)cc(Oc3ccc(C(=N)N)cc3)c2)cc1 . Reported Tmax: 45

###

- targetUnderTest: Coagulation factor X (Bos taurus, UniProt P00743)
- Sequence (P00743 41-180 limits assumed): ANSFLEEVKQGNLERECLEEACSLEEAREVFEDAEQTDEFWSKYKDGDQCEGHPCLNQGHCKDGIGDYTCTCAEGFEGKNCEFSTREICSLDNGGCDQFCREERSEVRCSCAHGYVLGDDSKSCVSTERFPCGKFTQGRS
- Sequence (P00743 234-492 limits assumed): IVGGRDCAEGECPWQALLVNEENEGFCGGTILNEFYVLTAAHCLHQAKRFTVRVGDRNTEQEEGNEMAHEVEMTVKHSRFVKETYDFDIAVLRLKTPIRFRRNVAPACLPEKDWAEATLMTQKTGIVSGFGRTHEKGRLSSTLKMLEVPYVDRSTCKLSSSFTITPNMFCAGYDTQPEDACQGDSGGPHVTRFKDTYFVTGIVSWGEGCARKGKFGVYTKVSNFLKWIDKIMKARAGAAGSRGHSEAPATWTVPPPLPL
- experimentalDetails: Inhibition of bovine plasma factor 10a using CH3OCO-D-CHA-Gly-Arg-pNA.AcoH substrate
readoutLabel: Ki (nM)
Give your result in nM as a bare value.

These recorded examples may help you get a feel for the data.
N=C(N)c1ccc(Oc2cc(N)cc(Oc3ccc(C(=N)N)cc3)c2)cc1 ... 851
N=C(N)c1ccc(Oc2cc(Oc3ccc(C(=N)N)cc3)cc(C(=O)NCC3CCC(O)CC3)c2)cc1 (configuration not stated) ... 920
CC1CCC(C(=O)Nc2cc(Oc3ccc(C(=N)N)cc3)cc(Oc3ccc(C(=N)N)cc3)c2)CC1 (configuration not stated) ... 743
N=C(N)c1ccc(Oc2cc(Oc3ccc(C(=N)N)cc3)cc(C(=O)NC3CCCCC3)c2)cc1 ... 190

Record N=C(N)c1ccc(Oc2cc(NC(=O)C3CCN(CCO)CC3)cc(Oc3ccc(C(=N)N)cc3)c2)cc1 . Reported Ki: 1160

Record N=C(N)c1ccc(Oc2cc(NC(=O)C3CCN(CCN)CC3)cc(Oc3ccc(C(=N)N)cc3)c2)cc1 . Reported Ki: 62

Record N=C(N)c1ccc(COc2cc(OCc3ccc(C(=N)N)cc3)cc(C(=O)N[C@H]3CC[C@H](N)CC3)c2)cc1 . Reported Ki: 1560

Record N=C(N)c1ccc(Oc2cc(Oc3ccc(C(=N)N)cc3)cc(C(N)=O)c2)cc1 . Reported Ki: 785

###

- System: PC-3
- experimentalDetails: Cytotoxicity against human PC3 cells assessed as inhibition of number of colonies formed in soft agar measured on day 8
- Assay type: functional, cell-based
- testContext: PC-3, 192 h
Threshold 80 nM: EC50 strictly smaller gives class 1, otherwise class 0.

N=C(N)c1ccc(Oc2cc(Oc3ccc(CN)cc3)cc(C(=O)N[C@H]3CC[C@H](N)CC3)c2)cc1 ... class 0

query: API: query returns whether the compound falls strictly under 80 nM in EC50. Query: N=C(N)c1ccc(Oc2cc(Oc3ccc(C(=N)N)cc3)cc(C(=O)N[C@H]3CC[C@H](N)CC3)c2)cc1
result: class 1

query: API: query returns whether the compound falls strictly under 80 nM in EC50. Query: N=C(N)c1ccc(Oc2cc(NC(=O)C3CCN(C(=O)CCN)CC3)cc(Oc3ccc(C(=N)N)cc3)c2)cc1
result: class 0

query: API: query returns whether the compound falls strictly under 80 nM in EC50. Query: N=C(N)c1ccc(Oc2cc(NC(=O)[C@H]3CC[C@H](N)CC3)cc(Oc3ccc(C(=N)N)cc3)c2)cc1
result: class 0

###

pIC50: −log10 of the molar value.
A set of compounds tested on Cytochrome P450 2C19 (Homo sapiens, UniProt P33261), with measured pIC50:

N=C(N)c1ccc(Oc2cc(Oc3ccc(C(=N)N)cc3)cc(C(=O)N[C@H]3CC[C@H](N)CC3)c2)cc1 ... < 4.52

With those in mind, consider the next compound.
Record N=C(N)c1ccc(Oc2cc(NC(=O)[C@H]3CC[C@H](N)CC3)cc(Oc3ccc(C(=N)N)cc3)c2)cc1 . Reported pIC50: < 4.52

meta.source: ChEMBL document CHEMBL3286254
